experiment: In vitro cytotoxicity in oxic cells (% survival); assay type: cell-based, Chinese hamster; details: hamster, v-79 cells, oxic, 4 hours, 0.5 mM; read-out: In vitro cytoxicity in oxic cells (% survival at 4 hours)
quantity: viability at 4 h, 500 µM (%)
Give bare numbers, in %.

> print(dat)
                                   compound  result.number
1  CC(=O)OC[C@H]1O[C@@H](n2ccnc2[N+](=O)[O-])C=C[C@@H]1OC(C)=O [C]            103

Let's switch to this compound now.
Task item: GET /values?readout=viability at 4 h, 500 µM&item= CC(=O)OC[C@H]1O[C@H](n2ccnc2[N+](=O)[O-])C=C[C@@H]1OC(C)=O [B]
Reply: 102

----------
experiment: In vitro cytotoxicity in hypoxic cells (% survival); type: cell-based, Chinese hamster; conditions: hamster, v-79 cells, 2 hours, 0.1 mM, read-out: In vitro cytoxicity in hypoxic cells (% survival at 2 hours)
Could you please report measured viability at 2 h, 100 µM for the items listed next?
Answers are plain numbers, in %.

> print(dat)
                                   compound                  quantity  result.number
1  O=C(OC[C@H]1O[C@@H](n2ccnc2[N+](=O)[O-])[C@@H](OC(=O)c2ccccc2)[C@@H]1OC(=O)c1ccccc1)c1ccccc1 [F]  viability at 2 h, 100 µM             97

Quick batch: viability at 2 h, 100 µM for everything below.
1. O=[N+]([O-])c1nccn1[C@@H]1C=C[C@H](O)[C@@H](CO)O1 [A]
2. CC(=O)OC[C@H]1O[C@H](n2ccnc2[N+](=O)[O-])C=C[C@@H]1OC(C)=O [B]
3. CC(=O)OC[C@H]1O[C@@H](n2ccnc2[N+](=O)[O-])C=C[C@@H]1OC(C)=O [C]

Reply:
[97.3, 90.9, 104]

----------
Answer each item with its documented viability at 2 h, 5000 µM.
experiment: In vitro cytotoxicity in oxic cells (% survival); type: cell-based, Chinese hamster; conditions: hamster, v-79 cells, oxic, 2 hours, 5.0 mM; read-out: In vitro cytoxicity in oxic cells (% survival at 2 hours)
One number for each entry, in %.

Solved cases below.
> print(dat)
                                   compound                   quantity  result.number
1  O=[N+]([O-])c1nccn1C1C[C@H](O)[C@@H](CO)O1 (some centres unmarked)  viability at 2 h, 5000 µM           82.4
2  O=[N+]([O-])c1nccn1C1O[C@H](CO)[C@@H](O)[C@@H]1O (some centres unmarked)  viability at 2 h, 5000 µM            116
3  O=[N+]([O-])c1nccn1C1CCCCO1 (centres unmarked)  viability at 2 h, 5000 µM           94.9
4  O=[N+]([O-])c1nccn1C1CCCO1 (centres unmarked)  viability at 2 h, 5000 µM           79.5

Consider the record given below.
Task item: Entry O=[N+]([O-])c1nccn1C1CCCC1O (centres unmarked) has what viability at 2 h, 5000 µM?
Reply: 94.7

----------
assay: In vitro cytotoxicity in hypoxic cells (% survival); format: cell-based, Chinese hamster; conditions: hamster, v-79 cells, 4 hours, 0.01 mM, read-out: In vitro cytoxicity in hypoxic cells (% survival at 4 hours)
quantity: viability at 4 h, 10 µM (%)
Answers are plain numbers, in %.

> print(dat)
                                   compound                 quantity  result.number
1  O=C(OC[C@H]1O[C@@H](n2ccnc2[N+](=O)[O-])[C@@H](OC(=O)c2ccccc2)[C@@H]1OC(=O)c1ccccc1)c1ccccc1 [F]  viability at 4 h, 10 µM            103

Now examine the next entry.
Task item: # input compound: O=C(OC[C@H]1O[C@H](n2ccnc2[N+](=O)[O-])[C@@H](OC(=O)c2ccccc2)[C@@H]1OC(=O)c1ccccc1)c1ccccc1 [E] ; wanted: its viability at 4 h, 10 µM
Reply: 80

----------
Answer each item with its documented viability at 2 h, 500 µM.
assay: In vitro cytotoxicity in hypoxic cells (% survival); format: cell-based, Chinese hamster; details: hamster, v-79 cells, 2 hours, 0.5 mM, read-out: In vitro cytoxicity in hypoxic cells (% survival at 2 hours)
Numbers only, in %.

Example entries and their recorded answers appear below.
> print(dat)
                                        smi  result.number
1  CC(=O)OC[C@H]1O[C@H](n2ccnc2[N+](=O)[O-])C=C[C@@H]1OC(C)=O            100
2  O=[N+]([O-])c1nccn1[C@@H]1C=C[C@H](O)[C@@H](CO)O1           75.9

Turning now to a further record.
Task item: Recorded viability at 2 h, 500 µM for CC(=O)OC[C@H]1O[C@@H](n2ccnc2[N+](=O)[O-])C=C[C@@H]1OC(C)=O , please?
Reply: 92.6

----------
assay: In vitro cytotoxicity in hypoxic cells (% survival); format: cell-based, Chinese hamster; details: hamster, v-79 cells, 4 hours, 0.25 mM, read-out: In vitro cytoxicity in hypoxic cells (% survival at 4 hours)
quantity: viability at 4 h, 250 µM (%)
Give bare numbers, in %.

Past entries and their recorded results:
> print(dat)
                                   compound                  quantity  unit.of.measurement  result.number
1  O=C(OC[C@H]1O[C@H](n2ccnc2[N+](=O)[O-])[C@@H](OC(=O)c2ccccc2)[C@@H]1OC(=O)c1ccccc1)c1ccccc1 [E]  viability at 4 h, 250 µM                    %            2.6
2  O=[N+]([O-])c1nccn1[C@@H]1C=C[C@H](O)[C@@H](CO)O1 [A]  viability at 4 h, 250 µM                    %           26.7

Would you kindly look at the next entry?
Task item: Requested field: viability at 4 h, 250 µM. Item: O=C(OC[C@H]1O[C@@H](n2ccnc2[N+](=O)[O-])[C@@H](OC(=O)c2ccccc2)[C@@H]1OC(=O)c1ccccc1)c1ccccc1 [F]
Reply: 73

----------
experiment: in vivo; conditions: mouse, ip
quantity: LD50 at 24 h (mg/kg)
Numbers only, in mg/kg.

Task item: For the molecule shown here, O=[N+]([O-])c1nccn1[C@@H]1C=C[C@H](O)[C@@H](CO)O1 [A] , give the reported LD50 at 24 h.
Reply: 3300

----------
Experiment: Pharmacokinetics, localization in tissue in mice bearing B16 melanoma
Format: in vivo, mouse (C57/BL)
Details: mouse, brain/plasma, ip, 1000 mg/kg; 30 min; read-out: Ratio of Brain/Plasma
Experimental: The drug solution was made in normal saline at a concentration of 50 mg/ml. The drug solution was injected intraperitoneally at a dose level of 1 g/kg to C57/BL mice bearing 15 day old B16 melanoma tumor. […] The methanol extracts were analyzed by reverse phase high-performance liquid chromatography employing 25% methanol as mobile phase. The peak was detected at 320 nm with a retention time of 2.3 min. […]
quantity: Kp at 0.5 h
One number for each entry.

Task item: Request the reported Kp at 0.5 h associated with O=[N+]([O-])c1nccn1[C@@H]1C=C[C@H](O)[C@@H](CO)O1
Reply: 0.097

----------
Test: In vitro cytotoxicity in hypoxic cells (% survival)
Type: cell-based, Chinese hamster
Settings: hamster, v-79 cells, 4 hours, 0.5 mM, read-out: In vitro cytoxicity in hypoxic cells (% survival at 4 hours)
Experimental: Asynchronous monolayers of cultures of Chinese hamster cells line V-79 were employed in all experiments. The monolayers were derived from exponentially growing cultures. Methods of culturing and handling have been reported earlier by Cooke et al, Rad. Res. 65, 152 (1976). […] The Do value was calculated for each compound and the ratio of the Do value for the hypoxic control cells to the Do value of the hypoxic drug treated cells provided the sensitized enhancement ratio of the corresponding agent. […]
I'd be grateful if you could share measured viability at 4 h, 500 µM for these entries.
Give bare numbers, in %.

Look over these answered cases.
> print(dat)
                                   compound  unit.of.measurement  result.number
1  CC(=O)OC[C@H]1O[C@H](n2ccnc2[N+](=O)[O-])C=C[C@@H]1OC(C)=O [B]                    %           60.3
2  O=[N+]([O-])c1nccn1[C@@H]1C=C[C@H](O)[C@@H](CO)O1 [A]                    %           15.8

Task item: I have this compound here, CC(=O)OC[C@H]1O[C@@H](n2ccnc2[N+](=O)[O-])C=C[C@@H]1OC(C)=O [C] , and I need its recorded viability at 4 h, 500 µM.
Reply: 41.1
